system tested: T1, HLA-A03.01 (human)
T1 construct: As for HLA-A02.01
measurement description: competition vs radiolabeled reference peptide on purified MHC I, gel filtration
pIC50: −log10 of the molar value.
# cutoff 7 applies to pIC50; >= gives satisfied, < gives not satisfied

{"columns": ["binder", "group"],
 "data": [
  ["TTLNSPPLKK (also called β2M, . . ; MPAV)", "satisfied"],
  ["TTLNSPPLK (also called β2M, . . ; MPAV)", "satisfied"],
  ["ALFFFFFETK (also called C15ORF40(+1))", "not satisfied"],
  ["RMKVPLMK (also called FAM111B(-1))", "satisfied"]
]}

Is it the case that TLNSPPLKK (also called β2M, . . ; MPAV) has pIC50 reaching or exceeding 7?
satisfied

Test whether the binder CLSFLSSWDY (also called C15ORF40(+1)) records pIC50 of 7 or higher.
not satisfied
